Target: Rat Striatal Nicotinic Receptors (Rattus norvegicus, UniProt P09483+P12390)
Construct: from tissue; host or cells: rat striatal membranes
Sequence (P09483 31-630): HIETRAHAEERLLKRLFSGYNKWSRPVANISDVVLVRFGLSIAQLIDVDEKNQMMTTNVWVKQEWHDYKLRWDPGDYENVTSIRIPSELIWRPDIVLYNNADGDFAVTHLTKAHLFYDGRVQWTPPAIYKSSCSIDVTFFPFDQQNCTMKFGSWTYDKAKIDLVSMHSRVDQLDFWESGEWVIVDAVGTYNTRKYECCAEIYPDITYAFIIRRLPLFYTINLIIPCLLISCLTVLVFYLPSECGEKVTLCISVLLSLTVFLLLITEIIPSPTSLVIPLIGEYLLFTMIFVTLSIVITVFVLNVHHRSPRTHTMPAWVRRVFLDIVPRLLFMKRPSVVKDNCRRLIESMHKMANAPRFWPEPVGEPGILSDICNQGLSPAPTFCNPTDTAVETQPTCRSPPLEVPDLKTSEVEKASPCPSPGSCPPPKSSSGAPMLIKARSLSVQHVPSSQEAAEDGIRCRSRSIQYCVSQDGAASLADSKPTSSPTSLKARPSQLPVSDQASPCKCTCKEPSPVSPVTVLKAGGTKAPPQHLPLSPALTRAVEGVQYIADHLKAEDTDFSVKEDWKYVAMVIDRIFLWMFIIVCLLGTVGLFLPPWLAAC
Sequence (P12390 25-500): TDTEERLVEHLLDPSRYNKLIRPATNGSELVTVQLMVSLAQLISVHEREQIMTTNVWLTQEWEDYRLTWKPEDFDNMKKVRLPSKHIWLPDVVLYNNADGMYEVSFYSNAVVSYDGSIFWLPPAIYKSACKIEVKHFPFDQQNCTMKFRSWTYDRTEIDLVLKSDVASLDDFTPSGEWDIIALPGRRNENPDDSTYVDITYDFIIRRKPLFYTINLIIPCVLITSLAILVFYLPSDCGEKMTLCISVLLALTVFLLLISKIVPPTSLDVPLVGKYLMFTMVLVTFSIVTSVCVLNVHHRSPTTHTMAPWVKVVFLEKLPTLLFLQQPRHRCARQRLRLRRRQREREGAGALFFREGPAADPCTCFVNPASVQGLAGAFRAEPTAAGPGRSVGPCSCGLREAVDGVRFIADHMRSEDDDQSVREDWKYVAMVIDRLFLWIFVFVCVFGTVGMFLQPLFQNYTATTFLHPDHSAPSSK
Experiment: Inhibition of [3H]Nicotine (NIC) binding assay, rat striatal membranes
Details: % inhibition at 100 nM concentration of analog, 3 nM [3H]NIC
metric-name: inhibition at 0.1 µM
State the value with its unit after it.

# annotated cases, reported inhibition at 0.1 µM shown
# compound, inhibition at 0.1 µM
records = [
    ("CN1CCC[C@H]1c1ccc[n+](CCCCCc2cc(CCCCC[n+]3cccc([C@@H]4CCCN4C)c3)cc(CCCCC[n+]3cccc([C@@H]4CCCN4C)c3)c2)c1 [GZ558C]", "81%"),
    ("Cc1cc(C)c[n+](CCCC#Cc2cc(C#CCCC[n+]3cc(C)cc(C)c3)cc(C#CCCC[n+]3cc(C)cc(C)c3)c2)c1 [GZ553A]", "8.9%"),
    ("Cc1cc[n+](CCCCCc2cc(CCCCC[n+]3ccc(C)cc3)cc(CCCCC[n+]3ccc(C)cc3)c2)cc1 [GZ555C]", "6%"),
]

Reported inhibition at 0.1 µM for Rat Striatal Nicotinic Receptors (Rattus norvegicus, UniProt P09483+P12390), given Cc1cccc[n+]1CCCC#Cc1cc(C#CCCC[n+]2ccccc2C)cc(C#CCCC[n+]2ccccc2C)c1 [GZ554A] ?
4.5%

Give inhibition at 0.1 µM (Rat Striatal Nicotinic Receptors (Rattus norvegicus, UniProt P09483+P12390)) of the following compound: CCCCc1ccc[n+](CCCCCc2cc(CCCCC[n+]3cccc(CCCC)c3)cc(CCCCC[n+]3cccc(CCCC)c3)c2)c1 [GZ558B]
6.2%

Identify the measured inhibition at 0.1 µM of C(#Cc1cc(C#CCCC[n+]2cccc3ccccc32)cc(C#CCCC[n+]2cccc3ccccc32)c1)CCC[n+]1cccc2ccccc21 [GZ552A] for Rat Striatal Nicotinic Receptors (Rattus norvegicus, UniProt P09483+P12390).
7%

Lab note: need inhibition at 0.1 µM for Cc1ccc[n+](CCCC#Cc2cc(C#CCCC[n+]3cccc(C)c3)cc(C#CCCC[n+]3cccc(C)c3)c2)c1 [GZ550A] on Rat Striatal Nicotinic Receptors (Rattus norvegicus, UniProt P09483+P12390), anyone have it?
10%

Item C(#Cc1cc(C#CCCC[n+]2cccc(-c3ccccc3)c2)cc(C#CCCC[n+]2cccc(-c3ccccc3)c2)c1)CCC[n+]1cccc(-c2ccccc2)c1 [GZ550B] with Rat Striatal Nicotinic Receptors (Rattus norvegicus, UniProt P09483+P12390) - inhibition at 0.1 µM?
15%

Please provide the recorded inhibition at 0.1 µM for c1ccc2c[n+](CCCCCc3cc(CCCCC[n+]4ccc5ccccc5c4)cc(CCCCC[n+]4ccc5ccccc5c4)c3)ccc2c1 [GZ556B] , tested on Rat Striatal Nicotinic Receptors (Rattus norvegicus, UniProt P09483+P12390).
8.4%

Give the reported inhibition at 0.1 µM for Cc1cc[n+](CCCC#Cc2cc(C#CCCC[n+]3ccc(C)c(C)c3)cc(C#CCCC[n+]3ccc(C)c(C)c3)c2)cc1C [GZ553B] (system: Rat Striatal Nicotinic Receptors (Rattus norvegicus, UniProt P09483+P12390)).
4%

Hi! What's the reported inhibition at 0.1 µM for Cc1cccc[n+]1CCCCCc1cc(CCCCC[n+]2ccccc2C)cc(CCCCC[n+]2ccccc2C)c1 [GZ555B] on Rat Striatal Nicotinic Receptors (Rattus norvegicus, UniProt P09483+P12390)?
8.6%

Entry c1ccc2c(c1)ccc[n+]2CCCCCc1cc(CCCCC[n+]2cccc3ccccc32)cc(CCCCC[n+]2cccc3ccccc32)c1 [GZ556A] , system Rat Striatal Nicotinic Receptors (Rattus norvegicus, UniProt P09483+P12390): what inhibition at 0.1 µM was measured?
5.7%

// fetch Rat Striatal Nicotinic Receptors (Rattus norvegicus, UniProt P09483+P12390) inhibition at 0.1 µM for Cc1cc(C)c[n+](CCCCCc2cc(CCCCC[n+]3cc(C)cc(C)c3)cc(CCCCC[n+]3cc(C)cc(C)c3)c2)c1 [GZ557A]
11%

Form entry - test system: Rat Striatal Nicotinic Receptors (Rattus norvegicus, UniProt P09483+P12390); read-out: inhibition at 0.1 µM; compound: C(#Cc1cc(C#CCCC[n+]2ccc3ccccc3c2)cc(C#CCCC[n+]2ccc3ccccc3c2)c1)CCC[n+]1ccc2ccccc2c1 [GZ552B]
9.2%
